# Assay Target: Peroxisome proliferator-activated receptor gamma (Homo sapiens, UniProt P37231)
# Assay Text: Antagonist activity at PPAR gamma LBD (203 to 476 residues) (unknown origin) expressed in HEK293T cells co-transfected with pCMV-GAL4-PPARgamma-LBD-SV40-Renilla-luciferase assessed as reduction of rosiglitazone induced PPAR-gamma activation incubated for 24 hrs by dural-luciferase reporter assay
We begin with a simple list: items and their reported IC50.
Answer format: numeric, µM implied, no suffix.

Here are 2 compounds together with their reported answers.
Notebook: C/C=C(\C)C(=O)OC[C@@]12[C@H](CCC[C@]1(O)CCl)[C@@](C)(C[C@H](O)C1=CC(=O)OC1)[C@H](C)C[C@@H]2O , IC50 read as 11.5

Notebook: C/C=C(\C)C(=O)O[C@@H](C[C@@]1(C)[C@H](C)C[C@H](OC(C)=O)[C@]2(COC(C)=O)[C@@H]1[C@H](OC(C)=O)CC[C@]21CO1)C1=CC(=O)OC1 [AJUGANIPPONIN A] , IC50 read as 11.6

Others:
// field: IC50; key: CCC(C)C(=O)O[C@@H](C[C@@]1(C)[C@H](C)C[C@H](O)[C@]2(C)[C@@H]1CCC[C@H]2C(=O)OC)C1=CC(=O)OC1 (stereo partly specified) ; value = 13

Item: CC(=O)OC[C@@]12[C@@H](OC(C)=O)C[C@@H](C)[C@](C)(CCC3=CC(=O)OC3)[C@H]1CCC[C@]21CO1 [AJUGARIN I] | IC50: 12

###

Recorded measurements of pKd, one per entry
# Assay Target: Peroxisome proliferator-activated receptor gamma (Homo sapiens, UniProt P37231)
# Sequence (P37231 whole entry): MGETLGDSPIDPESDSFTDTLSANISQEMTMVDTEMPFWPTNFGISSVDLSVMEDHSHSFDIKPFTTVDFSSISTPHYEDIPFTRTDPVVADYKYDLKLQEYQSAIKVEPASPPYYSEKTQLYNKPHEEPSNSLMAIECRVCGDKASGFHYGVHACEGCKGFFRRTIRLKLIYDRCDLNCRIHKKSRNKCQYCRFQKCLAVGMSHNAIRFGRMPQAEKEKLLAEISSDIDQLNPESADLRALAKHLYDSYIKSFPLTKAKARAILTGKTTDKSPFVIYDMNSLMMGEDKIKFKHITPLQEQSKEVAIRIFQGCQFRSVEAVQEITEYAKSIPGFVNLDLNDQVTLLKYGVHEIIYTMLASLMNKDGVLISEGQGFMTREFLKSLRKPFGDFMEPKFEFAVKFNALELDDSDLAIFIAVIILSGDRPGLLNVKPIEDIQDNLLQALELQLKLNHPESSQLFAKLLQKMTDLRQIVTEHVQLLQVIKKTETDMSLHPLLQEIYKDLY
# Assay Text: Binding affinity to PPAR gamma LBD (203 to 476 residues) (unknown origin) extracted from Escherichia coli BL21 (DE3) cells assessed as dissociation constant by Isothermal titration calorimetry method
Remember the convention: pKd equals -log10 of concentration in molar.

# pKd (compound: C/C=C(\C)C(=O)O[C@@H](C[C@@]1(C)[C@H](C)C[C@H](OC(C)=O)[C@]2(COC(C)=O)[C@@H]1CCC[C@]21CO1)C1=CC(=O)OC1 ) is 4.80

Now let's try a different one.
The compound C/C=C(\C)C(=O)OC[C@@]12[C@@H](OC(C)=O)C[C@@H](C)[C@](C)(CCC3=CC(=O)OC3)[C@H]1CCC[C@]21CO1 showed pKd equal to 4.75

###

# Assay Target: Peroxisome proliferator-activated receptor gamma (Homo sapiens)
# Assay Text: Antagonist activity at PPAR gamma LBD (203 to 476 residues) (unknown origin) expressed in HEK293T cells co-transfected with pCMV-GAL4-PPARgamma-LBD-SV40-Renilla-luciferase assessed as reduction of rosiglitazone induced PPAR-gamma activation incubated for 24 hrs by dural-luciferase reporter assay
Value Kind: IC50 (µM)
Answer with a number only, understood to be in µM.

Some solved entries appear below for comparison.
Per the records, this compound ( C/C=C(\C)C(=O)OC[C@@]12C(=O)C[C@@H](C)[C@](C)(CCC3=CC(=O)OC3)[C@H]1CCC[C@]21CO1 ) has IC50 equal to 2.05

Measured IC50, CCC(C)C(=O)O[C@@H](C[C@@]1(C)[C@H](C)C[C@H](OC(C)=O)[C@]2(COC(C)=O)[C@@H]1CCC[C@]21CO1)C1=CC(=O)OC1 (some centres undefined) : 12.2

response.value for C/C=C(\C)C(=O)OC[C@]12C(=O)CCC[C@@H]1[C@@](C)(CCC1=CC(=O)OC1)[C@H](C)CC2=O (field: IC50) = 13.3

Next:
Entry under test: C/C=C(\C)C(=O)OC[C@@]12[C@H](CCC[C@]13CO3)[C@@](C)(C[C@H](O)C1=CC(=O)OC1)[C@H](C)C[C@@H]2O . Its IC50 was 11.5

###

# System: BMDM
# Assay Text: Cytotoxicity against mouse Bone marrow macrophage at 10 uM measured after 72 hrs by MTT assay
# Format: toxicity, cell-based
Value Kind: Activity

// Activity value for CC(=O)OC[C@@]12[C@@H](OC(C)=O)C[C@@H](C)[C@](C)(CCC3=CC(=O)OC3)[C@H]1CCC[C@]21CO1 : Non-Toxic

For record COC(=O)[C@@H]1CCC[C@@H]2[C@@](C)(C[C@@H]3OC(=O)C=C3CO)[C@H](C)C[C@H](O)[C@]21C the listed Activity is Non-Toxic

So for CC(=O)OC[C@@]12[C@@H](OC(C)=O)C[C@@H](C)[C@](C)(C[C@H](O)C3=CC(=O)OC3)[C@H]1CCC[C@]21CO1 [AJUGALIDE C] , the logged Activity turned out to be Non-Toxic

Measured Activity of C[C@@H]1C[C@H](O)[C@@]23COC[C@@H]2CCC[C@@H]3[C@@]1(C)CCC1=CC(=O)OC1 : Non-Toxic

###

# Assay Target: Peroxisome proliferator-activated receptor gamma (Homo sapiens, UniProt P37231)
# Sequence (P37231 whole entry): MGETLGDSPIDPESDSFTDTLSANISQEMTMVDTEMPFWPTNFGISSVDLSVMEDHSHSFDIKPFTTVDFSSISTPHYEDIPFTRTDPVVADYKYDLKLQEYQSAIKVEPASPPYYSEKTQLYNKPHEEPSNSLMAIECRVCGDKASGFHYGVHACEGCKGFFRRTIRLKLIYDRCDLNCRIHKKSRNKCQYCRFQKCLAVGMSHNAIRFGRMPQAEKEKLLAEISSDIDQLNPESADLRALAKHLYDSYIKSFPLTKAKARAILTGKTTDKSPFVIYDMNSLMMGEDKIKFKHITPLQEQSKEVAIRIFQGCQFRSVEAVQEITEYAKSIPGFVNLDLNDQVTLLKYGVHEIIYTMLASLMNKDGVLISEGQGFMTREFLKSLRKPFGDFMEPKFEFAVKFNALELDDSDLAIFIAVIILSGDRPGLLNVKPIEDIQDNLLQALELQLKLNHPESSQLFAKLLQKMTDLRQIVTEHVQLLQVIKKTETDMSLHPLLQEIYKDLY
# Assay Text: Antagonist activity at PPAR gamma LBD (203 to 476 residues) (unknown origin) expressed in HEK293T cells co-transfected with pCMV-GAL4-PPARgamma-LBD-SV40-Renilla-luciferase assessed as reduction of rosiglitazone induced PPAR-gamma activation incubated for 24 hrs by dural-luciferase reporter assay
# Type: cell-based
Values of IC50 strictly less than 10 µM map to class 1, and values of at least 10 µM map to class 0.

Item C/C=C(\C)C(=O)O[C@@H](C[C@@]1(C)[C@H](C)C[C@H](OC(C)=O)[C@]2(COC(C)=O)[C@@H]1[C@H](O)CC[C@]21CO1)C1=CC(=O)OC1 : IC50 beneath 10 µM, strictly?
class 0

Lab log: compare recorded IC50 with 10 µM; is it strictly lower for C/C=C(\C)C(=O)O[C@@H](C[C@@]1(C)[C@H](C)C[C@H](OC(C)=O)[C@]2(COC(C)=O)[C@@H]1CCC[C@]21CO1)C1=CC(=O)OC1 ?
class 1

Dear colleague, could you confirm whether IC50 of C/C=C(\C)C(=O)OC[C@]12[C@H]3CCC[C@@]1(O)CO[C@@]2(O)C[C@H](C)[C@@]3(C)CCC1=CC(=O)OC1 falls below 10 µM? Thanks.
class 1

Threshold test, IC50 < 10 µM: C/C=C(\C)C(=O)OC[C@@]12[C@@H](OC(C)=O)C[C@@H](C)[C@](C)(CCC3=CC(=O)OC3)[C@H]1CCC[C@]2(O)COC(C)=O
class 0

Turning to the following molecule.
Threshold test, IC50 < 10 µM: COC(=O)[C@@H]1CCC[C@@H]2[C@@](C)(C[C@H](OC(=O)C(C)C)C3=CC(=O)OC3)[C@H](C)C[C@H](O)[C@]21C
class 0

###

# Tested on: BMDM
# Assay Text: Cytotoxicity against mouse Bone marrow macrophage at 10 uM measured after 72 hrs by MTT assay
# Assay type: toxicity, cell-based
Value Kind: Activity

// Activity (BMDM) for C/C=C(\C)C(=O)O[C@@H](C[C@@]1(C)[C@H](C)C[C@H](OC(C)=O)[C@]2(COC(C)=O)[C@@H]1[C@H](O)CC[C@]21CO1)C1=CC(=O)OC1 = Non-Toxic

Case C/C=C(\C)C(=O)OC[C@@]12[C@H](CCC[C@]13CO3)[C@@](C)(C[C@H](O)C1=CC(=O)OC1)[C@H](C)C[C@@H]2O , BMDM, Activity recorded as Non-Toxic

C/C=C(\C)C(=O)OC[C@@]12[C@@H](OC(C)=O)C[C@@H](C)[C@](C)(CCC3=CC(=O)OC3)[C@H]1CCC[C@]21CO1 tested on BMDM gave Activity: Non-Toxic
